The reported measurements were obtained from patent US20090130692A1.

Measured pKi, listed per entry for reference.
- Tested System: human tryptase β-Ia (Human), Q15661
- Sequence (Q15661 31-275 limits assumed): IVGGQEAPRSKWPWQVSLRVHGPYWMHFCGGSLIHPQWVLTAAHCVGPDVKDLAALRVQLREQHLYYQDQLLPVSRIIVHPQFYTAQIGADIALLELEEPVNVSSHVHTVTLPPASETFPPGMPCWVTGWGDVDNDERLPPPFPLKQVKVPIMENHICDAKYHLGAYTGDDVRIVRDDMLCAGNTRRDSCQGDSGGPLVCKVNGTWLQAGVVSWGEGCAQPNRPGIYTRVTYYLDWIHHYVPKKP
- Test Name: enzyme inhibition, selectivity panel; apparent Ki (Kiapp)
pKi: −log10 of the molar value.
Result Type: pKi

>>> obs_value("GVCPRILKKCRRDSDCPGACICRGNGYCG (modifications not checked) [MCoTI-R]")
7.40
>>> obs_value("GVCPKILKKCRRDSDCLAGCVCGPNGFCGS (modifications not checked) [SE-MG-0]")
7.15
>>> obs_value("KKVGVCPKILKKCRRDSDCPGACICRGNGYCG (modifications not checked) [MCoTI-KKV]")
8.52
